System: DNA aptamer or structured DNA GGGACGACGGCACGAGGTTAATCGTTGGTTGCACTGCGCTGGGAGGCAGTCGTCCC
measurement conditions: 10 mM Tris-HCl, pH 7.4
recorded endpoint: Kd

| chemical string | observed result |
| --- | --- |
| CN[C@@H](C)Cc1ccccc1 | 6.4 µM |

----------
System: DNA aptamer or structured DNA GGGACGACTAGCCGTGGCGTTGTTCGAGTGCAGCGAGTAGTCGTCCC
measurement conditions: 10 mM Tris-HCl, pH 7.4
pKd: −log10 of the molar value.
recorded endpoint: pKd

| chemical string | observed result |
| --- | --- |
| CC(=O)Oc1ccc2c3c1O[C@H]1[C@@H](OC(C)=O)C=C[C@H]4[C@@H](C2)N(C)CC[C@@]341 | 5.68 |

----------
System: DNA aptamer or structured DNA CTTACGACGTGTGCTGTTGGTTCTAGGGTAGGATGGCGTCGTAAG
measurement conditions: 10 mM Tris-HCl, pH 7.4

| molecule | tested on | binding call |
| --- | --- | --- |
| COC(=O)C(c1ccccc1)C1CCCCN1 (stereo not drawn) | DNA aptamer or structured DNA CTTACGACGTGTGCTGTTGGTTCTAGGGTAGGATGGCGTCGTAAG | no binding |
| CN1C2CCC1[C@@H](C(=O)O)[C@@H](OC(=O)c1ccccc1)C2 (stereo partly drawn) | DNA aptamer or structured DNA CTTACGACGTGTGCTGTTGGTTCTAGGGTAGGATGGCGTCGTAAG | binds |
| CCOC(=O)c1ccc(N)cc1 | DNA aptamer or structured DNA CTTACGACGTGTGCTGTTGGTTCTAGGGTAGGATGGCGTCGTAAG | no binding |
| CNC(C)C(=O)c1ccc(C)cc1 (stereo not drawn) | DNA aptamer or structured DNA CTTACGACGTGTGCTGTTGGTTCTAGGGTAGGATGGCGTCGTAAG | no binding |
| CN1CCCC1c1cccnc1 (stereo not drawn) | DNA aptamer or structured DNA CTTACGACGTGTGCTGTTGGTTCTAGGGTAGGATGGCGTCGTAAG | no binding |
| Cn1c(=O)c2c(ncn2C)n(C)c1=O | DNA aptamer or structured DNA CTTACGACGTGTGCTGTTGGTTCTAGGGTAGGATGGCGTCGTAAG | no binding |
| NCCc1c[nH]c2ccc(O)cc12 | DNA aptamer or structured DNA CTTACGACGTGTGCTGTTGGTTCTAGGGTAGGATGGCGTCGTAAG | binds |
| CC(=O)Oc1ccc2c3c1O[C@H]1[C@@H](OC(C)=O)C=C[C@H]4[C@@H](C2)N(C)CC[C@@]341 | DNA aptamer or structured DNA CTTACGACGTGTGCTGTTGGTTCTAGGGTAGGATGGCGTCGTAAG | no binding |
| NCCc1ccc(O)c(O)c1 | DNA aptamer or structured DNA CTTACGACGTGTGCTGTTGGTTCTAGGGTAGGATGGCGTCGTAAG | binds |
| c1ccc([C@H]2CN3CCSC3=N2)cc1 | DNA aptamer or structured DNA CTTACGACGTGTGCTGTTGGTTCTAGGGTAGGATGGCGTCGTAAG | no binding |
| CCCCCc1cc(O)c2c(c1)OC(C)(C)[C@@H]1CCC(C)=C[C@@H]21 | DNA aptamer or structured DNA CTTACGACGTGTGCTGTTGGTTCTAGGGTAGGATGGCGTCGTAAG | no binding |
| CC(N)Cc1ccccc1 (stereo not drawn) | DNA aptamer or structured DNA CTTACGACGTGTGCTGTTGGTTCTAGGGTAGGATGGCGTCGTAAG | no binding |
| CNC(C)Cc1ccc2c(c1)OCO2 (stereo not drawn) | DNA aptamer or structured DNA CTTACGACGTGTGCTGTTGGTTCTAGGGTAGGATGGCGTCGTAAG | binds |

----------
System: DNA aptamer or structured DNA GGGACGACTACAGGTCGTGCGTTGCTCGAGTTGGTGAGTGTGTCGTCCC
measurement conditions: 10 mM Tris-HCl, pH 7.4

| chemical string | tested on | uom | Kd |
| --- | --- | --- | --- |
| CN[C@@H](C)Cc1ccccc1 | DNA aptamer or structured DNA GGGACGACTACAGGTCGTGCGTTGCTCGAGTTGGTGAGTGTGTCGTCCC | µM | 3.6 |

----------
System: DNA aptamer or structured DNA GGGACGACTAGCCGTGGCGTTGTCCGAACCAGTGAGTAGTCGTCCC
measurement conditions: 10 mM Tris-HCl, pH 7.4
pKd: −log10 of the molar value.
recorded endpoint: pKd

| chemical string | observed result |
| --- | --- |
| CC(=O)Oc1ccc2c3c1O[C@H]1[C@@H](OC(C)=O)C=C[C@H]4[C@@H](C2)N(C)CC[C@@]341 | 5.58 |

----------
System: DNA aptamer or structured DNA CTTACGACTACGGTTGGTTCAGGGGGTAGGTGCTTTGGGTCGTAAG
measurement conditions: 10 mM Tris-HCl, pH 7.4
pKd: −log10 of the molar value.

| molecule | pKd |
| --- | --- |
| COC(=O)[C@@H]1C2CCC(C[C@@H]1OC(=O)c1ccccc1)N2C (stereo partly specified) | 6.70 |

----------
Tested on: DNA aptamer or structured DNA GGGACGACAAAAATGGAAGCATTGGTTGTTGGTGCTTTGTCGTCCC
measurement conditions: 10 mM Tris-HCl, pH 7.4
recorded endpoint: binding call; further: call rule not given here

| compound | recorded endpoint | observed result |
| --- | --- | --- |
| C=C[C@H]1CN2CC[C@@H]1C[C@H]2[C@H](O)c1ccnc2ccc(OC)cc12 | binding call | no binding |
| CN(C)CCCC1(c2ccc(F)cc2)OCc2cc(C#N)ccc21 (configuration not stated) | binding call | no binding |
| O=C1CC[C@@]2(O)[C@H]3Cc4ccc(O)c5c4[C@@]2(CCN3CC2CC2)[C@H]1O5 | binding call | no binding |
| CCC(=O)C(CC(C)N(C)C)(c1ccccc1)c1ccccc1 (configuration not stated) | binding call | no binding |
| O=C1CN=C(c2ccccc2Cl)c2cc([N+](=O)[O-])ccc2N1 | binding call | no binding |
| Cc1nnc2n1-c1ccc(Cl)cc1C(c1ccccc1)=NC2 | binding call | no binding |
| CC(=O)Oc1ccc2c3c1O[C@H]1[C@@H](OC(C)=O)C=C[C@H]4[C@@H](C2)N(C)CC[C@@]341 | binding call | no binding |
| COC(=O)[C@@H]1C2CCC(C[C@@H]1OC(=O)c1ccccc1)N2C (some centres not stated) | binding call | no binding |
| CCN(CC)CCOC(=O)c1ccc(N)cc1 | binding call | no binding |
| CCNC(C)C(=O)c1ccc2c(c1)OCO2 (configuration not stated) | binding call | no binding |
| COC(=O)C(c1ccccc1)C1CCCCN1 (configuration not stated) | binding call | no binding |
| O=C1Nc2ccc(Cl)cc2C(c2ccccc2Cl)=NC1O (configuration not stated) | binding call | no binding |
| CN(C)CCCN1c2ccccc2CCc2ccc(Cl)cc21 | binding call | no binding |
| CCOC(=O)c1ccc(N)cc1 | binding call | no binding |
| COc1cccc([C@@]2(O)CCCC[C@@H]2CN(C)C)c1.O=C(O)[C@@H](O)c1ccccc1 | binding call | no binding |
| CCCCCc1cc(O)c2c(c1)OC(C)(C)C1CC=C(C)CC21 (configuration not stated) | binding call | no binding |
| C=CCN1CC[C@]23c4c5ccc(O)c4O[C@H]2C(=O)CC[C@@]3(O)[C@H]1C5 | binding call | no binding |

----------
Test system: DNA aptamer or structured DNA GGGACGACTAGTGCCTTCGTGTTGTTCGGGAATCCGGTTCTGTCGTCCC
measurement conditions: 10 mM Tris-HCl, pH 7.4

| compound | tested on | binding call |
| --- | --- | --- |
| NCCCC(=O)O | DNA aptamer or structured DNA GGGACGACTAGTGCCTTCGTGTTGTTCGGGAATCCGGTTCTGTCGTCCC | no binding |
| CN(C)CCOC(c1ccccc1)c1ccccc1 | DNA aptamer or structured DNA GGGACGACTAGTGCCTTCGTGTTGTTCGGGAATCCGGTTCTGTCGTCCC | no binding |
| N[C@@H](Cc1ccccc1)C(=O)O | DNA aptamer or structured DNA GGGACGACTAGTGCCTTCGTGTTGTTCGGGAATCCGGTTCTGTCGTCCC | no binding |
| CN1CC[C@]23c4c5ccc(O[C@@H]6O[C@H](C(=O)O)[C@@H](O)[C@H](O)[C@H]6O)c4O[C@H]2[C@@H](O)C=C[C@H]3[C@H]1C5 | DNA aptamer or structured DNA GGGACGACTAGTGCCTTCGTGTTGTTCGGGAATCCGGTTCTGTCGTCCC | binds |
| O=C1CC[C@@]2(O)[C@H]3Cc4ccc(O)c5c4[C@@]2(CCN3CC2CC2)[C@H]1O5 | DNA aptamer or structured DNA GGGACGACTAGTGCCTTCGTGTTGTTCGGGAATCCGGTTCTGTCGTCCC | no binding |
| CCN(CC)CC(=O)Nc1c(C)cccc1C | DNA aptamer or structured DNA GGGACGACTAGTGCCTTCGTGTTGTTCGGGAATCCGGTTCTGTCGTCCC | no binding |
| NCC(O)c1ccc(O)c(O)c1 (stereo unspecified) | DNA aptamer or structured DNA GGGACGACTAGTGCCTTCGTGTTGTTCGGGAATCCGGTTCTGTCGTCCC | no binding |
| NCCc1c[nH]c2ccc(O)cc12 | DNA aptamer or structured DNA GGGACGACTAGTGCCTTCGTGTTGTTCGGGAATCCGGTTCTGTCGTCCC | no binding |
| CCN(CC)CCOC(=O)c1ccc(N)cc1 | DNA aptamer or structured DNA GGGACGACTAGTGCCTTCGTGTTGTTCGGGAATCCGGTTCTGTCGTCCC | no binding |
| CN1CC[C@]23c4c5ccc(O)c4O[C@H]2[C@@H](O[C@@H]2O[C@H](C(=O)O)[C@@H](O)[C@H](O)[C@H]2O)C=C[C@H]3[C@H]1C5 | DNA aptamer or structured DNA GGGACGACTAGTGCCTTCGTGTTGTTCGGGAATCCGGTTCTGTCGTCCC | binds |
| Oc1ccc2c3c1OC1C(O)C=CC4C(C2)NCCC341 (stereo unspecified) | DNA aptamer or structured DNA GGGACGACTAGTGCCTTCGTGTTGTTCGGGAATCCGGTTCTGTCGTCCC | no binding |
